- experiment_summary: MTT: Cell Damaging and Protecting Effect Test
- study_conditions: rabbit, gastric mucosal cells
reported_endpoint: cytotoxicity at 4 h, 100 µM (%)
Number only, in %; omit the unit.

Param item = CC(C)=CCC/C(C)=C/COc1ccc(C(=O)NCCN2CCN(CC(=O)N3CCCC3)CC2)cc1 ; retrieve measured cytotoxicity at 4 h, 100 µM.
27

----------
- experiment_summary: in vitro
- study_conditions: rabbit, gastric mucosal cells
Could you mark each record True if its cytotoxicity at 4 h, 100 µM falls strictly under 20%, and False if it equals or exceeds it?

Input COc1cc(C(=O)NCCN2CCOCC2)cc(OC)c1OC/C=C(/C)CCC=C(C)C ; condition: cytotoxicity at 4 h, 100 µM strictly below 20%. Does it hold?
True

Report whether reported cytotoxicity at 4 h, 100 µM is lower than 20% (strictly) for CC(C)=CCC/C(C)=C/COc1ccc(C(=O)NCCN2CCN(CC(C)C)CC2)cc1
False

Item COc1ccc(OC/C=C(\C)CCC=C(C)C)c(C(=O)NCCN2CCCCC2)c1 : cytotoxicity at 4 h, 100 µM beneath 20%, strictly?
False

Dear colleague, could you confirm whether cytotoxicity at 4 h, 100 µM of CC(C)=CCC/C(C)=C/COc1ccc(C(=O)NCCN2CCN(c3nccs3)CC2)cc1 falls below 20%? Thanks.
True

Confirm or reject: cytotoxicity at 4 h, 100 µM of COc1ccc(C(=O)NCCN2CCCCC2)cc1OC/C=C(\C)CCC=C(C)C lies strictly below 20%
False

Threshold test, cytotoxicity at 4 h, 100 µM < 20%: COc1cc(C(=O)NCCN2CCCCC2)ccc1OC/C=C(\C)CCC=C(C)C
False

I wonder whether CC(C)=CCC/C(C)=C/COc1ccccc1C(=O)NCCN1CCCCC1 has cytotoxicity at 4 h, 100 µM below 20%. Can you tell?
False

Threshold test, cytotoxicity at 4 h, 100 µM < 20%: COc1cc(C(=O)NCCN2CCOCC2)cc(OC/C=C(\C)CCC=C(C)C)c1OC
False

Field: below-cutoff. Rule: recorded cytotoxicity at 4 h, 100 µM strictly less than 20%. Subject: CC(C)=CCC/C(C)=C/CC/C(C)=C/COc1ccc(C(=O)NCCN2CCOCC2)cc1
False

Quick check: cytotoxicity at 4 h, 100 µM of COc1ccc(C(=O)NCCN2CCCCC2)c(OC/C=C(\C)CCC=C(C)C)c1 under 20%?
False

Problem: For the molecule CC(C)=CCC/C(C)=C/COc1ccc(C(=O)NCCN2CCOCC2)cc1 , is cytotoxicity at 4 h, 100 µM under 20%?
True

Is 20% strictly greater than the molecule's reported cytotoxicity at 4 h, 100 µM? molecule: CC(C)=CCC/C(C)=C/COc1cc(OC/C=C(\C)CCC=C(C)C)cc(C(=O)NCCN2CCCCC2)c1
False

Threshold test, cytotoxicity at 4 h, 100 µM < 20%: COc1cc(C(=O)NCCN2CCCCC2)cc(OC/C=C(\C)CCC=C(C)C)c1OC
False

Confirm or reject: cytotoxicity at 4 h, 100 µM of CC(C)=CCC/C(C)=C/COc1ccc(OC/C=C(\C)CCC=C(C)C)c(C(=O)NCCN2CCCCC2)c1 lies strictly below 20%
True

# strict comparison: is reported cytotoxicity at 4 h, 100 µM < 20%? input = CC(C)=CCC/C(C)=C/CSc1ccccc1C(=O)NCCN1CCOCC1
True

cytotoxicity at 4 h, 100 µM strictly < 20% for this molecule? CC(C)=CCC/C(C)=C/COc1ccc(F)cc1C(=O)NCCN1CCCCC1
True

I wonder whether CC(C)=CCC/C(C)=C/COc1ccc(C(=O)NCCN2CCCCC2)c(OC/C=C(\C)CCC=C(C)C)c1 has cytotoxicity at 4 h, 100 µM below 20%. Can you tell?
False

API: query returns whether the molecule falls strictly under 20% in cytotoxicity at 4 h, 100 µM. Query: COc1cc(C(=O)NCCN2CCOCC2)cc(OC)c1OC/C=C(\C)CCC=C(C)C
True

Is cytotoxicity at 4 h, 100 µM strictly under 20% for the entry COc1cc(C(=O)NCCN2CCCCC2)cc(OC)c1OC/C=C(\C)CCC=C(C)C ?
True

Entry source: patent US5814634A
